Molecular target: human Keap1 kelch domain (amino acids Ala321-Thr609) (Homo sapiens, UniProt Q14145)
Construct: human Keap1 kelch domain (amino acids Ala321-Thr609)
Sequence (Q14145 321-609): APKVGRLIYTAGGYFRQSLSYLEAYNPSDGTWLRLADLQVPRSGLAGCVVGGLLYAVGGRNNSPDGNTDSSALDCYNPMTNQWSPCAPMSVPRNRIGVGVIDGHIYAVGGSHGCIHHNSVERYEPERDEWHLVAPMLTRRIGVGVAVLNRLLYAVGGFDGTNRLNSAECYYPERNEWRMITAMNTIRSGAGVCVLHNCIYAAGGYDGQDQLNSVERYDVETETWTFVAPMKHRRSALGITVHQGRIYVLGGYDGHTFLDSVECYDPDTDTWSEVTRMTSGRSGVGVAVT
Assay: Keap1-Nrf2 peptide binding assay (fluorescence polarisation)
Settings: binding of Keap1 kelch domain (20 nM) to fluorescently labeled Nrf2 peptide (50 nM); read-out: IC50
I'd be grateful if you could share measured pIC50 for these entries.
Quick note: pIC50 values are minus log10 of concentrations in mol/L.

Fill in: pIC50 on human Keap1 kelch domain (amino acids Ala321-Thr609) (Homo sapiens, UniProt Q14145), entry O=C(O)c1cccc(-c2ccc(NS(=O)(=O)c3ccc(-n4cccn4)cc3)c3ccccc23)c1 [Example 20]
5.40

Fill in: pIC50 on human Keap1 kelch domain (amino acids Ala321-Thr609) (Homo sapiens, UniProt Q14145), entry Cc1nn(-c2ccccc2)c(C)c1S(=O)(=O)Nc1ccc(-c2cccc(C(=O)O)c2)c2ccccc12 [Example 50]
5.80

Fill in: pIC50 on human Keap1 kelch domain (amino acids Ala321-Thr609) (Homo sapiens, UniProt Q14145), entry Cc1c(S(=O)(=O)Nc2ccc(-c3cccc(C(=O)O)c3)c3ccccc23)cnn1CC(C)C [Example 68]
5.62

Fill in: pIC50 on human Keap1 kelch domain (amino acids Ala321-Thr609) (Homo sapiens, UniProt Q14145), entry CCCCn1cc(S(=O)(=O)Nc2ccc(-c3cccc(C(=O)O)c3)c3nc(C)ccc23)c(C)n1 [Example 71]
4.66

Fill in: pIC50 on human Keap1 kelch domain (amino acids Ala321-Thr609) (Homo sapiens, UniProt Q14145), entry Cc1cc(S(=O)(=O)Nc2ccc(-c3cccc(C(=O)O)c3)c3ccccc23)c(Cl)cc1Cl [Example 14]
5.42

Fill in: pIC50 on human Keap1 kelch domain (amino acids Ala321-Thr609) (Homo sapiens, UniProt Q14145), entry CC(=O)N1CCCc2cc(S(=O)(=O)Nc3ccc(-c4cccc(C(=O)O)c4)c4ccccc34)ccc21 [Example 30]
5.37

Fill in: pIC50 on human Keap1 kelch domain (amino acids Ala321-Thr609) (Homo sapiens, UniProt Q14145), entry Cc1nc(-c2ccc(C(F)(F)F)cc2)sc1S(=O)(=O)Nc1ccc(-c2cccc(C(=O)O)c2F)c2ccccc12 [Example 8]
5.28

* * *

I'd be grateful if you could share measured pIC50 for these entries.
Molecular target: human Keap1 kelch domain (amino acids Ala321-Thr609) (Homo sapiens)
Construct: human Keap1 kelch domain (amino acids Ala321-Thr609)
Test: Keap1-Nrf2 peptide binding assay (fluorescence polarisation)
Settings: binding of Keap1 kelch domain (20 nM) to fluorescently labeled Nrf2 peptide (50 nM)
Quick note: pIC50 values are minus log10 of concentrations in mol/L.

Please list pIC50 recorded for the compound O=C(O)c1ccc(F)c(-c2ccc(NS(=O)(=O)c3cccc(Cl)c3Cl)c3ccccc23)c1 [Example 74]
6.05

Please list pIC50 recorded for the compound O=C(O)c1cccc(-c2ccc(NS(=O)(=O)c3cc(Cl)sc3Cl)c3ccccc23)c1 [Example 49]
5.77

Please list pIC50 recorded for the compound O=C(O)c1cccc(-c2ccc(NS(=O)(=O)c3ccc(OC(F)(F)F)c(Cl)c3)c3ccccc23)c1 [Example 38]
5.17

Please list pIC50 recorded for the compound O=C(O)c1cccc(-c2ccc(NS(=O)(=O)c3cc(F)cc(F)c3F)c3ccccc23)c1 [Example 42]
5.19

Please list pIC50 recorded for the compound O=C(O)c1cccc(-c2ccc(NS(=O)(=O)c3cc(Cl)c(Cl)s3)c3ccccc23)c1 [Example 19]
5.15

Please list pIC50 recorded for the compound Cc1c(Cl)cc(F)cc1S(=O)(=O)Nc1ccc(-c2cccc(C(=O)O)c2)c2ccccc12 [Example 46]
5.68

Please list pIC50 recorded for the compound O=C(O)c1cccc(-c2ccc(NS(=O)(=O)c3cccc(Cl)c3Cl)c3ccccc23)c1 [Example 34]
5.82

Please list pIC50 recorded for the compound Cc1ccc(Cl)cc1S(=O)(=O)Nc1ccc(-c2cc(C(=O)O)ccc2F)c2ccccc12 [Example 87]
6.00

Please list pIC50 recorded for the compound O=C(O)c1cccc(-c2ccc(NS(=O)(=O)c3c(Cl)cc(C(F)(F)F)cc3Cl)c3ccccc23)c1 [Example 52]
5.85

Please list pIC50 recorded for the compound O=C(O)c1cccc(-c2ccc(NS(=O)(=O)c3cc(Cl)ccc3Cl)c3ccccc23)c1 [Example 54]
5.43

* * *

I'd be grateful if you could share measured pIC50 for these entries.
Target: human Keap1 kelch domain (amino acids Ala321-Thr609) (Homo sapiens)
Construct: human Keap1 kelch domain (amino acids Ala321-Thr609)
Test: Keap1-Nrf2 peptide binding assay (fluorescence polarisation)
Conditions: binding of Keap1 kelch domain (20 nM) to fluorescently labeled Nrf2 peptide (50 nM); read-out: IC50
Quick note: pIC50 values are minus log10 of concentrations in mol/L.

Please list pIC50 recorded for the compound `Cc1cc(S(=O)(=O)Nc2ccc(-c3cc(C(=O)O)ccc3F)c3ccccc23)c(Cl)cc1Cl`
5.89

Please list pIC50 recorded for the compound `Cc1c(S(=O)(=O)Nc2ccc(-c3cccc(C(=O)O)c3)c3ccccc23)sc2ccc(Cl)cc12`
5.80

Please list pIC50 recorded for the compound `O=C(O)c1ccc(F)c(-c2ccc(NS(=O)(=O)c3ccc(Cl)c(C(F)(F)F)c3)c3ccccc23)c1`
5.36

Please list pIC50 recorded for the compound `CC(=O)Nc1ccc(C)c(S(=O)(=O)Nc2ccc(-c3cccc(C(=O)O)c3)c3ccccc23)c1`
5.49

Please list pIC50 recorded for the compound `Cc1ccc(F)c(S(=O)(=O)Nc2ccc(-c3cccc(C(=O)O)c3)c3ccccc23)c1`
5.29

Please list pIC50 recorded for the compound `O=C(O)c1cccc(-c2ccc(NS(=O)(=O)c3ccc4[nH]c(=O)sc4c3)c3ccccc23)c1`
5.29

Please list pIC50 recorded for the compound `Cc1c(S(=O)(=O)Nc2ccc(-c3cc(C(=O)O)ccc3F)c3ccccc23)cnn1C1CCCC1`
5.92

Please list pIC50 recorded for the compound `CCCCn1cc(S(=O)(=O)Nc2ccc(-c3cc(C(=O)O)ccc3F)c3ccccc23)c(C)n1`
5.59

Please list pIC50 recorded for the compound `O=C(O)c1ccc(F)c(-c2ccc(NS(=O)(=O)c3cc(F)c(F)cc3Cl)c3ccccc23)c1`
5.29

Please list pIC50 recorded for the compound `Cn1ccc2c(S(=O)(=O)Nc3ccc(-c4cc(C(=O)O)ccc4F)c4ncccc34)cccc21`
5.26

Please list pIC50 recorded for the compound `Cc1ccc(S(=O)(=O)Nc2ccc(-c3cccc(C(=O)O)c3)c3ccccc23)cc1`
5.68

Please list pIC50 recorded for the compound `Cc1nc(C)c(S(=O)(=O)Nc2ccc(-c3cccc(C(=O)O)c3)c3ccccc23)s1`
5.34

Please list pIC50 recorded for the compound `Cc1nn(-c2ccccc2)c(C)c1S(=O)(=O)Nc1ccc(-c2cc(C(=O)O)ccc2F)c2ccccc12`
5.82

Please list pIC50 recorded for the compound `Cc1ccc(S(=O)(=O)Nc2ccc(-c3cccc(C(=O)O)c3)c3ccccc23)c(Cl)n1`
5.11

Please list pIC50 recorded for the compound `CCCCn1cc(S(=O)(=O)Nc2ccc(-c3cccc(C(=O)O)c3)c3ccccc23)c(C)n1`
6.15

Please list pIC50 recorded for the compound `COc1cc(C)ccc1S(=O)(=O)Nc1ccc(-c2cc(C(=O)O)ccc2F)c2ccccc12`
5.60

* * *

I'd be grateful if you could share measured log10 of IC50 for these entries.
Molecular target: human Keap1 kelch domain (amino acids Ala321-Thr609) (Homo sapiens, UniProt Q14145)
Construct: human Keap1 kelch domain (amino acids Ala321-Thr609)
Test: Keap1-Nrf2 peptide binding assay (fluorescence polarisation)
Settings: binding of Keap1 kelch domain (20 nM) to fluorescently labeled Nrf2 peptide (50 nM); read-out: IC50
Protocol: A fluorescence polarisation assay was used to measure binding of the human Keap1 kelch domain (amino acids Ala321-Thr609) to a fluorescently labeled peptide containing a Keap1 binding site of human Nrf2 (Alexa633-AFFAQLQLDEETGEFL; JPT Technologies, Berlin, Germany). […] Fluorescence polarization (FP) was measured at excitation and emission wavelengths of 635 nm and 660 nm, respectively. […]
Give log10 of IC50, with IC50 taken in nM.

Please list log10 of IC50 recorded for the compound COc1ccc(S(=O)(=O)Nc2ccc(-c3cc(C(=O)O)ccc3F)c3ccccc23)c(OC)c1 [Example 83]
3.34

Please list log10 of IC50 recorded for the compound Cc1nc(C)c(S(=O)(=O)Nc2ccc(-c3cc(C(=O)O)ccc3F)c3ccccc23)s1 [Example 80]
3.28

Please list log10 of IC50 recorded for the compound Cc1nc(-c2ccc(C(F)(F)F)cc2)sc1S(=O)(=O)Nc1ccc(-c2cc(C(=O)O)ccc2F)c2ccccc12 [Example 9]
3.76

Please list log10 of IC50 recorded for the compound COc1ccc(F)c(S(=O)(=O)Nc2ccc(-c3cccc(C(=O)O)c3)c3ccccc23)c1 [Example 32]
3.52

Please list log10 of IC50 recorded for the compound Cc1c(S(=O)(=O)Nc2ccc(-c3cc(C(=O)O)ccc3F)c3ncccc23)sc2cccc(F)c12 [Example 94]
3.48

Please list log10 of IC50 recorded for the compound COc1cc(C)ccc1S(=O)(=O)Nc1ccc(-c2cccc(C(=O)O)c2)c2ccccc12 [Example 18]
3.76

Please list log10 of IC50 recorded for the compound Cc1c(S(=O)(=O)Nc2ccc(-c3cccc(C(=O)O)c3)c3ccccc23)cnn1C1CCCC1 [Example 67]
3.26

Please list log10 of IC50 recorded for the compound O=C(O)c1ccc(F)c(-c2ccc(NS(=O)(=O)c3cc(Cl)ccc3Cl)c3ccccc23)c1 [Example 76]
3.38

Please list log10 of IC50 recorded for the compound CCCn1ncc(S(=O)(=O)Nc2ccc(-c3cc(C(=O)O)ccc3F)c3ccccc23)c1C [Example 72]
3.15

Please list log10 of IC50 recorded for the compound Cc1nn(C)c(Cl)c1S(=O)(=O)Nc1ccc(-c2cccc(C(=O)O)c2)c2ccccc12 [Example 12]
2.60

Please list log10 of IC50 recorded for the compound CC(=O)N1c2ccc(S(=O)(=O)Nc3ccc(-c4cccc(C(=O)O)c4)c4ccccc34)cc2CC1C (stereo not shown) [Example 27]
3.56

Please list log10 of IC50 recorded for the compound Cc1ccc2c(NS(=O)(=O)c3c(C)c(C)cc(C)c3C)ccc(-c3cc(C(=O)O)ccc3F)c2n1 [Example 61]
2.70

Please list log10 of IC50 recorded for the compound Cc1cc(C)c(C)c(S(=O)(=O)Nc2ccc(-c3cccc(C(=O)O)c3O)c3ccccc23)c1C [Example 10]
3.40

Please list log10 of IC50 recorded for the compound COc1ccc(F)c(S(=O)(=O)Nc2ccc(-c3cc(C(=O)O)ccc3F)c3ccccc23)c1 [Example 91]
3.34

Please list log10 of IC50 recorded for the compound Cc1cc(S(=O)(=O)Nc2ccc(-c3cccc(C(=O)O)c3)c3ccccc23)c(C)o1 [Example 58]
3.66

Please list log10 of IC50 recorded for the compound O=C(O)c1cccc(-c2ccc(NS(=O)(=O)c3ccc4c(c3)OCCO4)c3ccccc23)c1 [Example 55]
3.63

Please list log10 of IC50 recorded for the compound CCCn1ncc(S(=O)(=O)Nc2ccc(-c3cccc(C(=O)O)c3)c3ccccc23)c1C [Example 63]
3.51

Please list log10 of IC50 recorded for the compound Cc1cc(C)c(C)c(S(=O)(=O)Nc2ccc(-c3cccc(C(=O)O)c3F)c3ccccc23)c1C [Example 4]
2.30

Please list log10 of IC50 recorded for the compound Cc1cc(C)c(C)c(S(=O)(=O)Nc2ccc(-c3cc(C(=O)O)ccc3F)c3ccccc23)c1C [Example 5]
1.95

Please list log10 of IC50 recorded for the compound Cc1nn(C)c(C)c1S(=O)(=O)Nc1ccc(-c2cc(C(=O)O)ccc2F)c2ccccc12 [Example 79]
2.60

Please list log10 of IC50 recorded for the compound Cc1cc(C)c(C)c(S(=O)(=O)Nc2ccc(-c3cccc(C(=O)O)c3)c3ccccc23)c1C [Example 1]
2.30

Please list log10 of IC50 recorded for the compound O=C(O)c1cccc(-c2ccc(NS(=O)(=O)c3ccc(N4CCOCC4)nc3)c3ccccc23)c1 [Example 36]
3.62

Please list log10 of IC50 recorded for the compound Cc1nn(C)c(C)c1S(=O)(=O)Nc1ccc(-c2cccc(C(=O)O)c2)c2ccccc12 [Example 22]
2.90

Please list log10 of IC50 recorded for the compound O=C(O)c1cccc(-c2ccc(NS(=O)(=O)c3c(Cl)nc4sccn34)c3ccccc23)c1 [Example 60]
2.95

Please list log10 of IC50 recorded for the compound Cc1c(S(=O)(=O)Nc2ccc(-c3cccc(C(=O)O)c3)c3ccccc23)cnn1-c1ccccc1 [Example 23]
3.65

Please list log10 of IC50 recorded for the compound Cc1c(S(=O)(=O)Nc2ccc(-c3cc(C(=O)O)ccc3F)c3ncccc23)c2ccccc2n1C [Example 96]
2.95

Please list log10 of IC50 recorded for the compound CCCCCCCCc1cc(-c2cccc(C(=O)O)c2)c2ccccc2c1NS(=O)(=O)c1c(C)c(C)cc(C)c1C [Example 59]
4.66

Please list log10 of IC50 recorded for the compound Cc1cc(C)c(C)c(S(=O)(=O)Nc2ccc(-c3ccc(F)c(C(=O)O)c3)c3ccccc23)c1C [Example 6]
3.23
